- tested.on: MTP (Homo sapiens, UniProt P55157)
- Sequence (P55157 19-894, species assumed): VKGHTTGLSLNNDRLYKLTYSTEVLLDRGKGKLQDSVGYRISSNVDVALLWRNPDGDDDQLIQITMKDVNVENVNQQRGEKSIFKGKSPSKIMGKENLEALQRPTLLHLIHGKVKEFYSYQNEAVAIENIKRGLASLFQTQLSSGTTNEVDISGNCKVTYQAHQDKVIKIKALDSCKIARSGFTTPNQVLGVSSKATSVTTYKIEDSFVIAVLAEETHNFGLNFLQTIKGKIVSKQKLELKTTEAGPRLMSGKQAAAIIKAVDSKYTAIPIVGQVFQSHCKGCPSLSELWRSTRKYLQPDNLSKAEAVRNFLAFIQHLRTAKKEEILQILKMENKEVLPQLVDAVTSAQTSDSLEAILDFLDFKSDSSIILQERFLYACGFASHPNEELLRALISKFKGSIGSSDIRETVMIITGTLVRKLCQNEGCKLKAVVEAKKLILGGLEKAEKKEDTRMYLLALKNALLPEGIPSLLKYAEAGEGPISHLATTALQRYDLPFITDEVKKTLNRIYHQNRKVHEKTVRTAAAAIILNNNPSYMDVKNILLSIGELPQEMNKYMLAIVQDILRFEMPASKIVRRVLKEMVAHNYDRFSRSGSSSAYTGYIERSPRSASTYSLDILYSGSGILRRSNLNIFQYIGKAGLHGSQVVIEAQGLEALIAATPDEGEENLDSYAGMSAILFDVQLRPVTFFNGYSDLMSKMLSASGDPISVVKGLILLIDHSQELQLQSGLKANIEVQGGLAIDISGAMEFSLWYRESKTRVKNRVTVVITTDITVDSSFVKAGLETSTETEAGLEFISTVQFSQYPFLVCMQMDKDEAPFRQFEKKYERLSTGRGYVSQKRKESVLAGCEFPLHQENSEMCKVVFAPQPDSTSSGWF
- Sequence (P07237 18-508 partner, species assumed): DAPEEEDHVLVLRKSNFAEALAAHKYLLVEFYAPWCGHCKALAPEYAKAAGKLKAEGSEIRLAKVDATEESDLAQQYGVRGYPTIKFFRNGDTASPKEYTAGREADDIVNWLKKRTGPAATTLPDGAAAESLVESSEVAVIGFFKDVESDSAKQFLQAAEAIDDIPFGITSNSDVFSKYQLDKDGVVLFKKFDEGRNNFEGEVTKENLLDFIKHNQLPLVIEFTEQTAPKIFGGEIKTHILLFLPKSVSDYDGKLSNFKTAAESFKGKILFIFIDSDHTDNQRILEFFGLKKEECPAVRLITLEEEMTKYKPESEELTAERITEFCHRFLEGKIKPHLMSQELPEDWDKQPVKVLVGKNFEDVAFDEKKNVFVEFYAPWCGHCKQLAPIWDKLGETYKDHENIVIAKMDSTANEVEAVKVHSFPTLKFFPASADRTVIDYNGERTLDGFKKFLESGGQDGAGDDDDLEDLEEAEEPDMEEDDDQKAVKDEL
Rule for this label: label 1 means IC50 is less than 10 nM; label 0 means IC50 is at least 10 nM.

Look over these answered cases.
# smiles.code, label.value
data = [
    ("CCOC(=O)[C@]1(c2ccccc2)CC[C@@H](C(=O)N2CCC(N(C)C(=O)c3ccccc3OC)CC2)c2ccccc21", "label 0"),
    ("Cn1cccc(C(=O)NC2CCN(C(=O)[C@H]3CC[C@@](C(=O)NCCCCCC(=O)OC(C)(C)C)(c4ccccc4)c4ccccc43)CC2)c1=O", "label 0"),
    ("CCOC(=O)CCNC(=O)[C@@]1(c2ccccc2)CC[C@H](C(=O)N2CCC(NC(=O)c3ccccc3OC)CC2)c2ccccc21", "label 1"),
    ("COc1ccccc1C(=O)NC1CCN(C(=O)[C@H]2CC[C@@](C(=O)N[C@@H](CC(=O)OC(C)(C)C)C(=O)OC(C)(C)C)(c3ccccc3)c3ccccc32)CC1", "label 0"),
    ("Cn1cccc(C(=O)NC2CCN(C(=O)[C@H]3CC[C@@](C(=O)N[C@@H](Cc4ccccc4)C(=O)OC(C)(C)C)(c4ccccc4)c4ccccc43)CC2)c1=O", "label 0"),
]

Could you now look at the following compound, please?
# input Here's an entry: COc1ccccc1C(=O)NC1CCN(C(=O)[C@H]2CC[C@@](C(=O)N[C@@H](CCC(=O)OC(C)(C)C)C(=O)OC(C)(C)C)(c3ccccc3)c3ccccc32)CC1 . Is its IC50 below 10 nM?
# output label 1
